# procedure_text: Single oral dose pharmacokinetics study in rats (10 mg/kg PO; plasma levels of prodrug and of metabolite DMT or 5-MeO-DMT by LC-MS/MS)
# cond: male, Sprague-Dawley, rat, plasma, po, 10 mg/kg, C0/Cmax (nM), PO 10 mg/kg Plasma [Tlast = 4 h], analyte = dosed prodrug
attribute_measured: Cmax (nM)
Unit nM implied. Number only.

QUERY: Supply Cmax value. Item: CC(C)OP(=O)(OC(C)C)n1cc(CCN(C)C)c2ccccc21 [Diisopropylphosphonate DMT Prodrug]
RESULT: 554

---

# procedure_text: Single oral dose pharmacokinetics study in rats (10 mg/kg PO; plasma levels of prodrug and of metabolite DMT or 5-MeO-DMT by LC-MS/MS)
# cond: male, Sprague-Dawley, rat, plasma, po, 10 mg/kg, AUC0-t (ng.hr/mL), PO 10 mg/kg Plasma (t= 0 to Ihr)
attribute_measured: AUC(0-t) (ng·h/mL)
Reply numerically in ng·h/mL, unit not repeated.

QUERY: Give AUC(0-t) for CN(C)CCc1c[nH]c2ccccc12
RESULT: 4.51

---

# procedure_text: Single intravenous dose pharmacokinetics study in rats (1 mg/kg IV; plasma levels of prodrug and of DMT or 5-MeO-DMT by LC-MS/MS)
# cond: male, Sprague-Dawley, rat, plasma, iv, 1 mg/kg, t1/2 (h), IV 1 mg/kg, analyte = dosed compound
attribute_measured: half-life (min)
Field format: number, assumed min, no unit text.

QUERY: Report half-life, nothing else, for this molecule: CC(C)OP(=O)(OC(C)C)n1cc(CCN(C)C)c2ccccc21 [Diisopropylphosphonate DMT Prodrug]
RESULT: 51.9

QUERY: Return value of half-life for input COc1ccc2c(c1)c(CCN(C)C)cn2P(=O)(OC(C)C)OC(C)C [Diisopropylphosphonate 5-MeO-DMT Prodrug] , no commentary.
RESULT: 60.6

QUERY: Provide only the value of recorded half-life for CN(C)CCc1c[nH]c2ccccc12
RESULT: 8.76

QUERY: Using known records, supply half-life for COc1ccc2[nH]cc(CCN(C)C)c2c1 [Compound 5-MeO-DMT, 5-methoxy-N,N-dimethyltryptamine, reference compound]
RESULT: 30.6

QUERY: Note half-life for the molecule shown: CCOC(=O)n1cc(CCN(C)C)c2ccccc21
RESULT: 36.8
